Settings: 318.15 K; 101.33 kPa; Liquid; Cone and plate viscometry
Examples of molecules with documented viscosity follow.
// note: answer is a bare numeric in mPa·s

Check out these entries, answers already filled in.
CCCCCCCC[P+](CC)(CC)CC.O=[N+]([O-])c1c[n-]cn1 [triethyloctylphosphonium 4-nitroimidazolide]    95
CCC=Cn1cc[n+](C)c1C.O=[N+]([O-])c1cn[n-]c1 [1-but-1-enyl-2,3-dimethylimidazolium 4-nitropyrazolide]    131
CC(=O)[O-].CCCCCCn1cc[n+](C)c1 [3-hexyl-1-methylimidazolium acetate]    265
CCCC[P+](CC)(CC)CC.O=[N+]([O-])c1cn[n-]c1 [butyltriethylphosphonium 4-nitropyrazolide]    67
CCCCCCCCCCCCCC[P+](CCCCCC)(CCCCCC)CCCCCC.O=[N+]([O-])c1c[n-]cn1 [trihexyl(tetradecyl)phosphonium 4-nitroimidazolide]    230

Pending molecule:
For reference, reported viscosity for CCCCCCn1cc[n+](C)c1C.O=[N+]([O-])c1cn[n-]c1 [1-hexyl-2,3-dimethylimidazolium 4-nitropyrazolide] stands at 213

====

Details: 323.15 K; 101.33 kPa; Liquid; Cone and plate viscometry
Examples of compounds with documented viscosity follow.
// note: answer is a bare numeric in mPa·s

CCCC[P+](CC)(CC)CC.Cc1ncc([N+](=O)[O-])[n-]1 [butyltriethylphosphonium 2-methyl-5-nitroimidazolide]    90
CCCCCCCC[P+](CC)(CC)CC.O=[N+]([O-])c1c[n-]cn1 [triethyloctylphosphonium 4-nitroimidazolide]    76
CCCCCCCCCCCCCC[P+](CCCCCC)(CCCCCC)CCCCCC.N#Cc1nc[n-]c1C#N [trihexyl(tetradecyl)phosphonium 4,5-dicyanoimidazolide]    135
CCCCCCCC[P+](CC)(CC)CC.O=[N+]([O-])c1cn[n-]c1 [triethyloctylphosphonium 4-nitropyrazolide]    65

For reference, reported viscosity for CCCCCCC[P+](CC)(CC)CC.O=[N+]([O-])c1cn[n-]c1 [triethylheptylphosphonium 4-nitropyrazolide] stands at 62

For reference, reported viscosity for CC(=O)[O-].CCCCCCCCCCCCCC[P+](CCCCCC)(CCCCCC)CCCCCC [trihexyl(tetradecyl)phosphonium acetate] stands at 107

====

Settings: 328.15 K; 101.33 kPa; Liquid; Cone and plate viscometry
attribute measured: viscosity (mPa·s)
// note: answer is a bare numeric in mPa·s

Check out these entries, answers already filled in.
CCCCCCCC[P+](CC)(CC)CC.O=[N+]([O-])c1c[n-]cn1 [triethyloctylphosphonium 4-nitroimidazolide]    62
CCCCCCCCCCCCCC[P+](CCCCCC)(CCCCCC)CCCCCC.O=S(=O)([N-]S(=O)(=O)C(F)(F)F)C(F)(F)F    76
CCCCCCCCCCCCCC[P+](CCCCCC)(CCCCCC)CCCCCC.N#Cc1nc[n-]c1C#N [trihexyl(tetradecyl)phosphonium 4,5-dicyanoimidazolide]    108
CC(=O)[O-].CCCCCCn1cc[n+](C)c1 [3-hexyl-1-methylimidazolium acetate]    147

For reference, reported viscosity for CCCCCCCC[P+](CC)(CC)CC.O=[N+]([O-])c1cn[n-]c1 [triethyloctylphosphonium 4-nitropyrazolide] stands at 53

====

Examples of compounds with documented viscosity follow.
Conditions: 288.15 K; 101.33 kPa; Liquid; Cone and plate viscometry
Numbers after ± are expanded uncertainties.
Numeric answer plus unit only.

Check out these entries, answers already filled in.
CCCCCCCCCCCCCC[P+](CCCCCC)(CCCCCC)CCCCCC.O=[N+]([O-])c1cn[n-]c1 [trihexyl(tetradecyl)phosphonium 4-nitropyrazolide]    1500 ± 140 mPa·s
CCCCCCCCC[P+](CC)(CC)CC.O=[N+]([O-])c1cn[n-]c1 [triethylnonylphosphonium 4-nitropyrazolide]    593 ± 48 mPa·s
CCCCCCSC(N(C)C)=[N+](C)C.O=S(=O)([N-]S(=O)(=O)C(F)(F)F)C(F)(F)F    143 ± 10 mPa·s
CCCCCCCCCCCCCC[P+](CCCCCC)(CCCCCC)CCCCCC.Cc1ncc([N+](=O)[O-])[n-]1 [trihexyl(tetradecyl)phosphonium 2-methyl-5-nitroimidazolide]    2420 ± 240 mPa·s
CCCCCCCC[P+](CC)(CC)CC.O=[N+]([O-])c1cn[n-]c1 [triethyloctylphosphonium 4-nitropyrazolide]    480 ± 38 mPa·s

Pending compound:
For reference, reported viscosity for CCCCCCCCCCCCCC[P+](CCCCCC)(CCCCCC)CCCCCC.O=S(=O)([N-]S(=O)(=O)C(F)(F)F)C(F)(F)F stands at 594 ± 48 mPa·s

====

Conditions: 288.15 K; 101.33 kPa; Liquid; Vibrating tube method
attribute measured: mass density (kg/m3)
// note: answer is a bare numeric in kg/m3

CCCCCCCCC[P+](CC)(CC)CC.O=[N+]([O-])c1cn[n-]c1 [triethylnonylphosphonium 4-nitropyrazolide]    1027.9

For reference, reported mass density for CCCCCCCCCC[P+](CC)(CC)CC.O=[N+]([O-])c1cn[n-]c1 [decyltriethylphosphonium 4-nitropyrazolide] stands at 1017

For reference, reported mass density for CCCCCCCCCCCCCC[P+](CCCCCC)(CCCCCC)CCCCCC.N#Cc1nc[n-]c1C#N [trihexyl(tetradecyl)phosphonium 4,5-dicyanoimidazolide] stands at 925.7

For reference, reported mass density for CCCCCCCCSC(N(C)C)=[N+](C)C.O=S(=O)([N-]S(=O)(=O)C(F)(F)F)C(F)(F)F stands at 1305.2

For reference, reported mass density for CCCCCCCC[P+](CC)(CC)CC.Cc1ncc([N+](=O)[O-])[n-]1 [triethyloctylphosphonium 2-methyl-5-nitroimidazolide] stands at 1034.6

For reference, reported mass density for CCCC[P+](CC)(CC)CC.O=[N+]([O-])c1cn[n-]c1 [butyltriethylphosphonium 4-nitropyrazolide] stands at 1084.7

====

Details: 298.15 K; 101.33 kPa; Liquid; Vibrating tube method
attribute measured: mass density (kg/m3)
// note: answer is a bare numeric in kg/m3

CCCCCCCC[P+](CC)(CC)CC.Cc1ncc([N+](=O)[O-])[n-]1 [triethyloctylphosphonium 2-methyl-5-nitroimidazolide]    1028.6
CCCC[n+]1cccn1C.O=S(=O)([N-]S(=O)(=O)C(F)(F)F)C(F)(F)F [1-butyl-2-methylpyrazolium bis(trifluoromethylsulfonyl)imide]    1451.2
CCCCCCCCC[P+](CC)(CC)CC.O=[N+]([O-])c1cn[n-]c1 [triethylnonylphosphonium 4-nitropyrazolide]    1021.8
CCCCCCn1cc[n+](C)c1C.O=[N+]([O-])c1cn[n-]c1 [1-hexyl-2,3-dimethylimidazolium 4-nitropyrazolide]    1118.9
CCCCCCCCCCCCCC[P+](CCCCCC)(CCCCCC)CCCCCC.Clc1nc[n-]c1Cl [trihexyl(tetradecyl)phosphonium 4,5-dichloroimidazolide]    964.4

For reference, reported mass density for CCCCCCC[P+](CC)(CC)CC.O=[N+]([O-])c1cn[n-]c1 [triethylheptylphosphonium 4-nitropyrazolide] stands at 1037.8

====

Settings: 323.15 K; 101.33 kPa; Liquid; Cone and plate viscometry
Mark each entry criterion met if its viscosity sits below 90 mPa·s, and criterion not met for all others.

CCCCCCCC[P+](CC)(CC)CC.Cc1ncc([N+](=O)[O-])[n-]1 [triethyloctylphosphonium 2-methyl-5-nitroimidazolide]    criterion not met
CCCCCCn1cc[n+](C)c1.O=[N+]([O-])c1cn[n-]c1 [1-hexyl-3-methylimidazolium 4-nitropyrazolide]    criterion met
CCC=Cn1cc[n+](C)c1C.O=[N+]([O-])c1cn[n-]c1 [1-but-1-enyl-2,3-dimethylimidazolium 4-nitropyrazolide]    criterion not met
CCCCCCCCCCCCCC[P+](CCCCCC)(CCCCCC)CCCCCC.Clc1nc[n-]c1Cl [trihexyl(tetradecyl)phosphonium 4,5-dichloroimidazolide]    criterion not met

Confirm or reject: viscosity of CCCCCCCCCC[P+](CC)(CC)CC.O=[N+]([O-])c1cn[n-]c1 [decyltriethylphosphonium 4-nitropyrazolide] lies strictly below 90 mPa·s criterion met

====

Settings: 318.15 K; 101.33 kPa; Liquid; Cone and plate viscometry
Mark each entry Yes if its viscosity sits below 100 mPa·s, and No for all others.

Here's what some known entries look like.
CCC=C[P+](CC)(CC)CC.O=[N+]([O-])c1cn[n-]c1 [(buten-1-yl)triethylphosphonium 4-nitropyrazolide]    Yes
CCCCCCCC[P+](CC)(CC)CC.Cc1ncc([N+](=O)[O-])[n-]1 [triethyloctylphosphonium 2-methyl-5-nitroimidazolide]    No
CCCCCCn1cc[n+](C)c1.N#Cc1ccc[n-]1 [1-hexyl-3-methylimidazolium 2-cyanopyrrolide]    Yes
CCCCCCCC[P+](CC)(CC)CC.O=[N+]([O-])c1cn[n-]c1 [triethyloctylphosphonium 4-nitropyrazolide]    Yes
CCCCCCCCC[P+](CC)(CC)CC.O=[N+]([O-])c1cn[n-]c1 [triethylnonylphosphonium 4-nitropyrazolide]    Yes

Okay, next one:
Confirm or reject: viscosity of CCCCCCCCCCCCCC[P+](CCCCCC)(CCCCCC)CCCCCC.Cc1ncc([N+](=O)[O-])[n-]1 [trihexyl(tetradecyl)phosphonium 2-methyl-5-nitroimidazolide] lies strictly below 100 mPa·s No
